Tested on: methicillin-resistant Staphylococcus aureus (DMST20654)
Experiment: Antimicrobial activity, broth microdilution
Format: cell-based
Conditions: MRSA, read-out: MIC
Assay Readout: MIC (µg/mL)

mol=COc1cc(O)c2c(c1)O[C@H](c1ccc(O)cc1O)CC2=O recorded_number=128

[a] COc1cc(O)c(-c2oc3cc(O)cc(O)c3c(=O)c2CC=C(C)C)cc1O
[b] COc1cc2oc(-c3ccc(O)cc3O)c(CC=C(C)C)c(=O)c2c(O)c1/C=C/C(C)C
Prompt line: From the recorded data, which exceeds the other in MIC: a or b ? Choose, then provide that item's label.
Response line: a
